Experiment: Liver microsome stability
Type: in vitro ADME
Conditions: pH 7.4; human liver microsomes 0.5 mg/mL, NADPH, 37 °C; read-out: Microsomal stability t1/2
Method: page 6: A03 DDL-214 Figure S3B. SirT1 protein levels in N2a-E4 cells after A03 and DDL-214 treatment. Compound treatment was done at 5 and 50 µM. SirT1 levels were measured by AlphaLISA followed and normalized to protein concentration DDL-218 Physiochemical Properties Physiochemical properties of DDL-218 are shown in Table S2. […] An aliquot (50 µL) of each supernatant was analyzed by LC-MS/MS. […] Aliquots (50 µL) of supernatant were analyzed by LC-MS/MS to create the standard curve. […]
Quantity kind: half-life

For CC(N)C(=O)OC(C)(C)Cc1ccncc1 (stereo not shown) , what is its reported half-life? > 2.33 h

###

Assay: Kinetic solubility
Assay type: physicochemical
Conditions: aqueous buffer, kinetic from dmso stock, PBS pH 7.4, 37°C
Quantity kind: solubility kinetic at 90 min (µM)
One number for each entry, in µM.

For CC(N)C(=O)OC(C)(C)Cc1ccncc1 (stereo not shown) , what is its reported solubility kinetic at 90 min? 64.4

###

Assay: Brain tissue binding (dialysis of brain homogenate)
Type: in vitro ADME
Settings: pH 7.4, brain homogenate 20 mg/mL, 2 µM compound, 37 °C, read-out: Brain Tissue Binding [fu,bound (%)]
Description: Figure S3B. SirT1 protein levels in N2a-E4 cells after A03 and DDL-214 treatment. Compound treatment was done at 5 and 50 µM. SirT1 levels were measured by AlphaLISA followed and normalized to protein […] DDL-218 Physiochemical Properties Brain Tissue Binding [fu,bound (%)] Brain tissue was homogenized in PBS (pH 7.4) (1: 3 weight(mg)/volume(µL)) and the protein concentration of was determined using the Micro BCA™ Protein Assay Kit (Thermo Fisher Scientific, Cat#23235). […]
Quantity kind: fraction unbound at 4.5 h, 2 µM

For CC(N)C(=O)OC(C)(C)Cc1ccncc1 (stereo not shown) [DDL-218] , what is its reported fraction unbound at 4.5 h, 2 µM? 0.43

Reference for the values: paper PMC12019328
